- experimentNotes: in vivo
- setupConditions: male, Beagle, dog, plasma, sc, 100 ug/kg
valueKind: Cmax (nM)

>>> resultvalue("CC[C@H](C)[C@@H]1NC(=O)[C@H](CC(=O)O)NC(=O)[C@H](CC(C)C)NC(=O)c2ccc(-c3ccc(N4CCN(C(=O)c5ccccc5-c5ccccc5C(=O)N5CCN(c6ccc(-c7ccc8cc7CNC(=O)[C@@H]7CCCN7[C@H](C(=O)NC(C)(C)C)[C@H](C)NC(=O)[C@H]([C@@H](C)CC)NC(=O)[C@H](CC(=O)O)NC(=O)[C@H](CC(C)C)NC8=O)cc6)CC5)CC4)cc3)c(c2)CNC(=O)[C@@H]2CCCN2[C@H](C(=O)NC(C)(C)C)[C@H](C)NC1=O")
504

---

- experimentNotes: in vivo
- setupConditions: male, Beagle, dog, plasma, sc, 100 ug/kg
valueKind: half-life (h)

>>> resultvalue("CC[C@H](C)[C@@H]1NC(=O)[C@H](CC(=O)O)NC(=O)[C@H](CC(C)C)NC(=O)c2ccc(-c3ccc(N4CCN(C(=O)c5ccccc5-c5ccccc5C(=O)N5CCN(c6ccc(-c7ccc8cc7CNC(=O)[C@@H]7CCCN7[C@H](C(=O)NC(C)(C)C)[C@H](C)NC(=O)[C@H]([C@@H](C)CC)NC(=O)[C@H](CC(=O)O)NC(=O)[C@H](CC(C)C)NC8=O)cc6)CC5)CC4)cc3)c(c2)CNC(=O)[C@@H]2CCCN2[C@H](C(=O)NC(C)(C)C)[C@H](C)NC1=O")
230

---

- experimentNotes: in vivo
- setupConditions: male, Beagle, dog, plasma, sc, 400 ug/kg
valueKind: Tmax (h)

>>> resultvalue("CC[C@H](C)[C@@H]1NC(=O)[C@H](CC(=O)O)NC(=O)[C@H](CC(C)C)NC(=O)c2ccc(-c3ccc(N4CCN(C(=O)c5ccccc5-c5ccccc5C(=O)N5CCN(c6ccc(-c7ccc8cc7CNC(=O)[C@@H]7CCCN7[C@H](C(=O)NC(C)(C)C)[C@H](C)NC(=O)[C@H]([C@@H](C)CC)NC(=O)[C@H](CC(=O)O)NC(=O)[C@H](CC(C)C)NC8=O)cc6)CC5)CC4)cc3)c(c2)CNC(=O)[C@@H]2CCCN2[C@H](C(=O)NC(C)(C)C)[C@H](C)NC1=O")
20
